Target: DNA-PK (Homo sapiens)
Experiment: Cellular inhibition of ATR and related kinases
quantity.name: IC50 (µM)
Give the number; µM is assumed, so skip it.

Requested read-out: IC50. Entry: CNCc1ccc(-c2cc(-c3nc(-c4ccc(S(=O)(=O)C(C)C)cc4)cnc3N)on2)cc1 18.1

----------
Target: UniProt:P42345
quantity.name: Ki

State the recorded Ki for this entry: CNCc1ccc(-c2cc(-c3nc(-c4ccc(S(=O)(=O)C(C)C)cc4)cnc3N)on2)cc1 > 1000 nM

----------
quantity.name: pKi
Please treat pKi as minus the base-10 logarithm of the molar concentration.

Under PI3Kγ (Homo sapiens): pKi value of CNCc1ccc(-c2cc(-c3nc(-c4ccc(S(=O)(=O)C(C)C)cc4)cnc3N)on2)cc1 ? 6.66

----------
quantity.name: pKi
Would you please state pKi, meaning minus log10 of the concentration in mol/L, as a bare number?

Query the reported pKi for ATM (Homo sapiens); item: CNCc1ccc(-c2cc(-c3nc(-c4ccc(S(=O)(=O)C(C)C)cc4)cnc3N)on2)cc1 7.47
